Target: T1, Hof1, Q05080
T1 sequence (Q05080 590-669, looked up): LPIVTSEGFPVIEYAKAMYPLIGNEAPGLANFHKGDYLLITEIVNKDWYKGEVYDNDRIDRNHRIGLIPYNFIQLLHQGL
Test: SPOT array
Settings: median of control spots 4086
Reported SPOT intensity values for a set of binders
Please state the value as a number alone, without comment.

PPPPPPPPPPPLPQS : 1

I am curious: what SPOT intensity value has been reported for WTQRRGPLVVYAEDN ?
3

I am curious: what SPOT intensity value has been reported for AGKRRLPLVRFKASD ?
7

I am curious: what SPOT intensity value has been reported for NPNRRAPRRPLSTQH ?
70

I am curious: what SPOT intensity value has been reported for RRSKSLPITPKSIFN ?
0

I am curious: what SPOT intensity value has been reported for VFQFQMPTTPISTKM ?
0

I am curious: what SPOT intensity value has been reported for RPVPPPPPMRTTTEG ?
23

I am curious: what SPOT intensity value has been reported for FHLNPKRSAVLYDRP ?
83

I am curious: what SPOT intensity value has been reported for RRGPAPPPPPRASRP ?
2

I am curious: what SPOT intensity value has been reported for KIRRSSLMIPNPQQF ?
0

I am curious: what SPOT intensity value has been reported for SRQAIPPPVPNRPGG ?
1

I am curious: what SPOT intensity value has been reported for TIRRRAPLSLLESHT ?
4

I am curious: what SPOT intensity value has been reported for SRSKPLPLTPNSKYN ?
0

I am curious: what SPOT intensity value has been reported for RPVPRRPSQPLNTLS ?
13

I am curious: what SPOT intensity value has been reported for PSRRDSLSIPRAVDA ?
0
